Taken from patent US7803801B2.

System Under Test: UniProt:P43405
Measurement Notes: Syk kinase inhibition test (HTRF method)
Format: biochemical
Measurement Parameters: Tables 1-x, compounds A; read-out: sykHTRF ave IC50
Counter-ions that a name gives are not always drawn.
Experimental Endpoint: IC50

>  <Compound>
Cc1ccnc(Nc2cccc(-c3cnc(N4CCCc5c(C(=O)O)cccc54)s3)n2)c1 [Compound A-627]

>  <Experimental Endpoint>
IC50

>  <Measured>
< 100 nM

$$$$

For every record below, what is its IC50?
1. Cc1ccnc(Nc2cccc(-c3cnc(N(C)CCCCC(=O)O)s3)n2)c1 [Compound A-632]
2. Cc1ccnc(Nc2cccc(-c3cnc(N(C)C(C(=O)NCC(F)(F)F)C(C)C)s3)n2)c1 (centres unmarked) [Compound A-676]
3. Cc1ccnc(Nc2cccc(-c3cnc(N(C)Cc4ccc(OCc5ccccc5)cc4)s3)n2)c1 [Compound A-462]
4. CCc1ccnc(Nc2cccc(-c3cnc(N4CCC(CC(=O)O)CC4)s3)n2)c1 [Compound A-692, dihydrochloride]

Response given:
1. < 100 nM
2. 100 to 1000 nM
3. 100 to 1000 nM
4. < 100 nM

====

For each entry below, report its pIC50 value.
System Under Test: GST-Syk Full Protein (human) (Homo sapiens)
Measurement Notes: Syk kinase inhibition test (HTRF method)
Format: biochemical
Measurement Parameters: HTRF, 100 μM ATP, 30 min room temperature, average; read-out: sykHTRF ave IC50
pIC50: −log10 of the molar value.

The following compounds have reported results that may help.
>  <Query Smiles>
Cc1ccnc(Nc2cccc(-c3cnc([C@H](CCC(=O)OCc4ccccc4)NC(=O)OC(C)(C)C)s3)n2)c1

>  <pIC50>
< 6.00

$$$$
>  <Query Smiles>
CC(=O)N[C@H](c1ncc(-c2cccc(Nc3cc(C)ccn3)n2)s1)C(C)C

>  <pIC50>
6.00 to 7.00

$$$$

# next compound below
Challenge: Any idea what pIC50 was measured for Cc1ccnc(Nc2cccc(-c3cnc(N4CCC(CCC(=O)O)CC4)s3)n2)c1 ?
Response given: > 7.00

====

System Under Test: GST-Syk Full Protein (human) (Homo sapiens)
Measurement Notes: Syk kinase inhibition test (HTRF method)
Assay type: biochemical
Measurement Parameters: HTRF, 100 μM ATP, 30 min room temperature, average; read-out: sykHTRF ave IC50
Assign IC50 to each entry below.

// worked examples, IC50 included
>  <Compound>
Cc1ccnc(Nc2cccc(-c3cnc([C@H]4CC[C@H](C(=O)O)CC4)s3)n2)c1 [Compound A-7]

>  <Measured>
< 100 nM

$$$$
>  <Compound>
Cc1ccnc(Nc2cccc(-c3cnc(CNC[C@H]4CC[C@H](C(=O)O)CC4)s3)n2)c1 [Compound A-207]

>  <Measured>
100 to 1000 nM

$$$$
>  <Compound>
Cc1ccnc(Nc2cccc(-c3cnc([C@@H](N)CO)s3)n2)c1 [Compound A-13]

>  <Measured>
100 to 1000 nM

$$$$
>  <Compound>
Cc1ccnc(Nc2cccc(-c3cnc([C@@H](NC(=O)OC(C)(C)C)C(C)C)s3)n2)c1 [Compound A-36]

>  <Measured>
> 1000 nM

$$$$
>  <Compound>
O=C(O)[C@H]1CC[C@H](c2ncc(-c3cccc(Nc4cc(Cl)ccn4)n3)s2)CC1 [Compound A-204]

>  <Measured>
< 100 nM

$$$$
>  <Compound>
Cc1ccnc(Nc2cccc(-c3cnc([C@H]4CC[C@H](C(=O)N5CCNC(=O)C5)CC4)s3)n2)c1 [Compound A-283]

>  <Measured>
< 100 nM

$$$$
>  <Compound>
Cc1ccnc(Nc2cccc(-c3cnc([C@H]4CC[C@H](C(=O)N[C@H]5CC[C@H](O)CC5)CC4)s3)n2)c1 [Compound A-305]

>  <Measured>
100 to 1000 nM

$$$$
>  <Compound>
Cc1ccnc(Nc2cccc(-c3cnc(COCC(=O)N4CCC(O)CC4)s3)n2)c1 [Compound A-369]

>  <Measured>
100 to 1000 nM

$$$$

Give me IC50 for each of these compounds, listed below.
1. COc1cc(Nc2cccc(-c3sc(NC(C)=O)nc3C)n2)ncn1 [Compound A-22]
2. CNC(=O)C1CCN(c2ncc(-c3cccc(Nc4cc(C)ccn4)n3)s2)CC1 [Compound A-4]
3. Cc1ccnc(Nc2cccc(-c3sc(N4CCOCC4)nc3C)n2)c1 [Compound A-425]
4. CCOC(=O)C1CCN(Cc2ncc(-c3cccc(Nc4cc(C)ccn4)n3)s2)CC1 [Compound A-167]
5. Cc1ccnc(Nc2cccc(-c3cnc([C@H]4CC[C@H](C(=O)N5CCC(O)C5)CC4)s3)n2)c1 (some centres unmarked) [Compound A-282]

Response given:
100 to 1000 nM
< 100 nM
< 100 nM
100 to 1000 nM
< 100 nM

For every item below, please supply its IC50.
1. CC(=O)N[C@@H](C)c1ncc(-c2cccc(Nc3cc(C4(C)OCCO4)ccn3)n2)s1 [Compound A-199]
2. CC(=O)N1CCC(Cc2ncc(-c3cccc(Nc4cc(C)ccn4)n3)s2)CC1 [Compound A-328]
3. CC(=O)NC1CCN(C(=O)[C@H]2CC[C@H](c3ncc(-c4cccc(Nc5cc(C)ccn5)n4)s3)CC2)C1 (some centres unmarked) [Compound A-284]
4. CC(=O)N1CCN(Cc2ncc(-c3cccc(Nc4cc(C)ccn4)n3)s2)CC1 [Compound A-190]
5. Cc1ccnc(Nc2cccc(-c3cnc(CN4CCC(N)CC4)s3)n2)c1 [Compound A-197]
6. Cc1ccnc(Nc2cccc(-c3cnc([C@H](C)NC(=O)Cc4ccc(O)cc4)s3)n2)c1 [Compound A-352]
7. Cc1ccnc(Nc2cccc(-c3cnc(CCc4ccc(NS(C)(=O)=O)cc4)s3)n2)c1 [Compound A-221]

Response given:
["100 to 1000 nM", "100 to 1000 nM", "100 to 1000 nM", "100 to 1000 nM", "< 100 nM", "100 to 1000 nM", "100 to 1000 nM"]

====

Can you tell me pIC50 for the items I'm about to list?
System: cultured human mast cells
Measurement Notes: Degranulation inhibition test using cultured human mast cells (IgE cross-linking, β-Hexosaminidase release)
Type: cell-based
Measurement Parameters: Mast cell; cultured human mast cells, anti-hIgE stimulation, β-Hexosaminidase index, average; read-out: human degranulation ave. IC50
pIC50: −log10 of the molar value.

>  <Compound>
Cc1ccnc(Nc2cccc(-c3cnc(C(=O)CCC(=O)O)s3)n2)c1 [Compound A-124]

>  <pIC50>
< 6.00

$$$$

Kindly give each listed record's pIC50.
1. C[C@H](N)c1ncc(-c2cccc(Nc3cc(-c4ccncc4)ccn3)n2)s1 [Compound A-75]
2. Cc1ccnc(Nc2cccc(-c3cnc([C@H](C)NC(=O)c4ccccc4)s3)n2)c1 [Compound A-348]
3. Cc1ccnc(Nc2cccc(-c3cnc([C@H]4CC[C@H](C(=O)NC5(CO)CCCC5)CC4)s3)n2)c1 [Compound A-310]
4. CC(=O)Nc1nc(C)c(-c2cncc(Nc3cc(C)ccn3)n2)s1 [Compound A-21]
5. CC(=O)NC[C@H]1CC[C@H](c2ncc(-c3cccc(Nc4cc(C)ccn4)n3)s2)CC1 [Compound A-228]
6. CC(=O)N[C@@H](CCC(=O)OCc1ccccc1)c1ncc(-c2cccc(Nc3cc(C)ccn3)n2)s1 [Compound A-98]
7. CC(=O)NCCc1ncc(-c2cccc(Nc3cc(C)ccn3)n2)s1 [Compound A-256]
8. CC(=O)N[C@@H](Cc1ccc(O)cc1)c1ncc(-c2cccc(Nc3cc(C)ccn3)n2)s1 [Compound A-99]

Response given:
6.00 to 7.00
< 6.00
< 6.00
6.00 to 7.00
6.00 to 7.00
< 6.00
6.00 to 7.00
6.00 to 7.00

====

System: cultured human mast cells
Measurement Notes: Degranulation inhibition test using cultured human mast cells (IgE cross-linking, β-Hexosaminidase release)
Type: cell-based
Measurement Parameters: Mast cell; cultured human mast cells, anti-hIgE stimulation, β-Hexosaminidase index, average; read-out: human degranulation ave. IC50
For each record, write down the corresponding IC50.

>  <Molecule>
COc1ccnc(Nc2cccc(-c3cnc([C@H](C)N)s3)n2)c1

>  <Experimental Endpoint>
IC50

>  <Measured>
100 to 1000 nM

$$$$
>  <Molecule>
CC(=O)N[C@@H](CO)c1ncc(-c2cccc(Nc3cc(C)ccn3)n2)s1

>  <Experimental Endpoint>
IC50

>  <Measured>
100 to 1000 nM

$$$$
>  <Molecule>
CC(=O)N1C[C@H](O)C[C@H]1c1ncc(-c2cccc(Nc3cc(C)ccn3)n2)s1

>  <Experimental Endpoint>
IC50

>  <Measured>
> 1000 nM

$$$$
>  <Molecule>
Cc1ccnc(Nc2cccc(-c3cnc(Cc4ccc(C(=O)N5C[C@@H](O)[C@@H](O)C5)cc4)s3)n2)c1

>  <Experimental Endpoint>
IC50

>  <Measured>
100 to 1000 nM

$$$$
>  <Molecule>
CC(=O)N[C@@H](C)c1nc(C)c(-c2cccc(Nc3cc(C)ccn3)n2)s1

>  <Experimental Endpoint>
IC50

>  <Measured>
> 1000 nM

$$$$

Provide the reported IC50 of each entry below, same order.
1. Cc1ccnc(Nc2cccc(-c3cnc(C(C)(C)N)s3)n2)c1
2. CC(=O)N[C@@H](C)c1ncc(-c2cccc(Nc3cc(C)ccn3)n2)s1
3. CC(=O)OCC(=O)N[C@@H](C)c1ncc(-c2cccc(Nc3cc(C)ccn3)n2)s1
4. CC(=O)N1CCC(Cc2ncc(-c3cccc(Nc4cc(C)ccn4)n3)s2)CC1
5. Cc1ccnc(Nc2cccc(-c3cnc([C@H]4CC[C@H](C(=O)N5CCC(O)CC5)CC4)s3)n2)c1

Response given:
["100 to 1000 nM", "100 to 1000 nM", "100 to 1000 nM", "100 to 1000 nM", "100 to 1000 nM"]
